assay: Pharmacokinetic study of compounds in mice (brain exposure); type: in vivo, male C57BL/6 mice; conditions: male, C57BL/6, mouse, oral, 5 mg/kg, Protocols B-E
Readout name: AUC(0-t)

>  <Compound>
O=C(c1cc(O)ccc1F)N1CC2(CC(n3cc(C(F)(F)F)c(-c4ccccc4F)n3)C2)C1 (single isomer, unassigned) [Compound 473]

>  <Readout name>
AUC(0-t)

>  <Result>
464 ng·h/mL

$$$$
>  <Compound>
Cc1cnn(C2CC3(C2)CN(C(=O)c2cc(O)ccc2F)C3)c1-c1cc(F)ccc1F (single isomer, unassigned) [Compound 476]

>  <Readout name>
AUC(0-t)

>  <Result>
224 ng·h/mL

$$$$
>  <Compound>
O=C(c1ccc(F)cc1OC1CC1)N1CC2(CC(n3nc(-c4ccccc4C(F)(F)F)cc3C(F)(F)F)C2)C1 (single isomer, unassigned) [Compound 451]

>  <Readout name>
AUC(0-t)

>  <Result>
1200 ng·h/mL

$$$$

----------
Biological target: human MAGL (Homo sapiens)
Construct: recombinant MAGL enzyme (aa 2-303 RBC, internal preparation)
Sequence (Q99685 2-303): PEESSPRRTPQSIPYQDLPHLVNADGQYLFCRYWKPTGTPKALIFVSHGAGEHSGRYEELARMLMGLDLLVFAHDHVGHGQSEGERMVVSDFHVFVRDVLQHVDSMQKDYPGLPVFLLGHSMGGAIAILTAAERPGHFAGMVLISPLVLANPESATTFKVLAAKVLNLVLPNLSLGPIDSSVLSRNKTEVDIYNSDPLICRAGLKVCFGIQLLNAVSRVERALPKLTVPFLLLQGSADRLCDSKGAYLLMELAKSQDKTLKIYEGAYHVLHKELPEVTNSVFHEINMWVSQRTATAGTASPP
Experiment: MAGL inhibition potency assay with 4-nitrophenyl acetate (4NPA) substrate, absorbance 405 nm
Format: biochemical
Settings: Method 6: Reaction Biology MAGL enzyme prep, 6 nM enzyme; read-out: MAGL Potency (Detection Method)
Readout name: IC50

>  <Molecule>
O=C(c1ccc(F)cc1OC1CC1)N1CC2(CC(n3nc(-c4ccccc4C(F)(F)F)cc3C(F)(F)F)C2)C1 (single isomer, unassigned) [Compound 451]

>  <Result>
50 to 150 nM

$$$$

----------
test: Pharmacokinetic study of compounds in mice (brain exposure); format: in vivo, male C57BL/6 mice; details: male, C57BL/6, mouse, oral, 5 mg/kg, Protocols B-E
Readout name: Cmax (ng/g)

>  <Compound>
O=C(c1cc(O)ccc1F)N1CC2(CC(n3cc(C(F)(F)F)c(-c4ccccc4F)n3)C2)C1 (single isomer, unassigned)

>  <Recorded number>
172

$$$$
>  <Compound>
Cc1cnn(C2CC3(C2)CN(C(=O)c2cc(O)ccc2F)C3)c1-c1cc(F)ccc1F (single isomer, unassigned)

>  <Recorded number>
72

$$$$
>  <Compound>
O=C(c1ccc(F)cc1OC1CC1)N1CC2(CC(n3nc(-c4ccccc4C(F)(F)F)cc3C(F)(F)F)C2)C1 (single isomer, unassigned)

>  <Recorded number>
271

$$$$

----------
Target: human MAGL (Homo sapiens, UniProt Q99685)
Construct: recombinant MAGL enzyme (aa 2-303 RBC, internal preparation)
Sequence (Q99685 2-303): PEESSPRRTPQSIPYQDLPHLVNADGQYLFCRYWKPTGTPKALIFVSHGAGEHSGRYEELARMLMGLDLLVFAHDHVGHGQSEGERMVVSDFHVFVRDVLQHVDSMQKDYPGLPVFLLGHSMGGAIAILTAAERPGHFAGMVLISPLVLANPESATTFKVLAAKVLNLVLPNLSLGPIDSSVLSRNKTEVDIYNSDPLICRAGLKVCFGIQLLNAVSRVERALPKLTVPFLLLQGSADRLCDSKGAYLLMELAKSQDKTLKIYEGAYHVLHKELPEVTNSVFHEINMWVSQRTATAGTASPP
Assay: MAGL inhibition potency assay with 4-nitrophenyl acetate (4NPA) substrate, absorbance 405 nm
Format: biochemical
Details: Method 5: Cayman Chemical MAGL enzyme prep, 25 nM enzyme; read-out: MAGL Potency (Detection Method)
pIC50: −log10 of the molar value.

>  <Smiles representation>
Cc1cc(C2CC3(C2)CN(C(=O)c2ccc(F)cc2OCC(F)(F)F)C3)n(-c2ccccc2C)n1

>  <pIC50>
> 7.30

$$$$
